- tgt: CFTR (F508del/MF-HBE cells) (Homo sapiens, UniProt P13569, DEL508-508)
- Construct: human bronchial epithelial (HBE) cells derived from CF subjects heterozygous for F508del and a minimal function CFTR mutation (F508del/MF-HBE); endogenous in cells; host or cells: Primary human bronchial epithelial cells from CF subjects (F508del/MF genotype), differentiated at an air-liquid interface
- Sequence (P13569 with tags, fused parts or gaps DEL508-508): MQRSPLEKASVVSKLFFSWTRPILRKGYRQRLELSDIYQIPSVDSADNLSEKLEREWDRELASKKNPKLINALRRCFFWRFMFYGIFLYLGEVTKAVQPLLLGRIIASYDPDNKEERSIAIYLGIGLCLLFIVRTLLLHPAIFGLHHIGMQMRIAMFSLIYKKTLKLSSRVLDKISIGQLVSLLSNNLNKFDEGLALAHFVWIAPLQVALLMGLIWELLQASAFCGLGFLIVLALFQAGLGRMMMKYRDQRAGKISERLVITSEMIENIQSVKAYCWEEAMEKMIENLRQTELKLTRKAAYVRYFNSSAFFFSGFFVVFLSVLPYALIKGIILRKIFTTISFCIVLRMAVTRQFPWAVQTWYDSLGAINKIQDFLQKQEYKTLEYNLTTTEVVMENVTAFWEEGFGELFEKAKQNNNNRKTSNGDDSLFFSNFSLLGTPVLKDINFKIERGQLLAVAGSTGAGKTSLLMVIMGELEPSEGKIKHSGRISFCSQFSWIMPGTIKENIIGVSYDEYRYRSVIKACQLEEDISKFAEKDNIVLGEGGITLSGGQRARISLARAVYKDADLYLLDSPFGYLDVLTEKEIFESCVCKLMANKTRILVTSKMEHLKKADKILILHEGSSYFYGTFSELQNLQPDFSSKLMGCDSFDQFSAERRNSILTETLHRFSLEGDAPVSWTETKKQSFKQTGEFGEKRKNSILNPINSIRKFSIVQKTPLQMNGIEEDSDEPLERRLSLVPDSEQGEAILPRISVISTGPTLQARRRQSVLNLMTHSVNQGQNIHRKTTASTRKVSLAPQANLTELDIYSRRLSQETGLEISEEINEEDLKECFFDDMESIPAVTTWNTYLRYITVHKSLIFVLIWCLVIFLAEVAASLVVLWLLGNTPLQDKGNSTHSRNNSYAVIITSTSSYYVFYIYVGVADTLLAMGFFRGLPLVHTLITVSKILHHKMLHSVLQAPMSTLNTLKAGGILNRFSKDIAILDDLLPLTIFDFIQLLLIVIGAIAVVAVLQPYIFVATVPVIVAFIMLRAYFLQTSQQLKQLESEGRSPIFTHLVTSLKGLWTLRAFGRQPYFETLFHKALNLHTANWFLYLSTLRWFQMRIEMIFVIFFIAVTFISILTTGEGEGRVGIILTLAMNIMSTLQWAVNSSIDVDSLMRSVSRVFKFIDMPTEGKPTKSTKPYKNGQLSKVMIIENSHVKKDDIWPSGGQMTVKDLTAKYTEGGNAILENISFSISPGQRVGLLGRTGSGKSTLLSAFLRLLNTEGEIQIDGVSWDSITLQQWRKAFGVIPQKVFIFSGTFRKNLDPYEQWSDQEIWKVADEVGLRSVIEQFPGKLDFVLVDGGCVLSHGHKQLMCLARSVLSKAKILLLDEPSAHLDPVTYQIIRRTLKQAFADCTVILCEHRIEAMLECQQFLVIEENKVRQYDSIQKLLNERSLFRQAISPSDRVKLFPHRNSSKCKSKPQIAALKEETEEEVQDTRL
- procedure.summary: Ussing chamber assay of CFTR-mediated short-circuit currents, Assay B (0.00001 μM to 25 μM, 12 concentrations)
- Assay type: cell-based
- condition.set: with 33 nM potentiator and 18 μM Tezacaftor, 20% human serum
The entries below come with measured EC50 values attached.

Worked cases, answers included:
{"compound": "Cc1cccc(C)c1-c1cc2nc(n1)NS(=O)(=O)c1cccc(c1)C(=O)N(Cc1cnc3cn(C(C)C)nc3n1)[C@H](CC1(C)CC1)CO2", "EC50": "3 to 30 µM"}
{"compound": "Cc1cccc(CC(C)C)c1-c1nc2nc(c1C)OC[C@@H](CC(C)(C)C)N(Cc1cnc3cc(C(C)C)n(C)c3n1)C(=O)c1cccc(c1)S(=O)(=O)N2 (atropisomer, axis not shown)", "EC50": "< 1 µM"}
{"compound": "Cc1cccc(C)c1-c1cc2nc(n1)NS(=O)(=O)c1cccc(c1)C(=O)N(Cc1cnc3oc(C(C)C)cc3n1)[C@H](CC1CCC1)CO2", "EC50": "1 to 3 µM"}
{"compound": "Cc1cccc(C)c1-c1nc2nc(c1C)OC[C@@H](COC(C)C)N(Cc1cnc3cc(C(C)(C)C)n(C)c3n1)C(=O)c1cccc(c1)S(=O)(=O)N2", "EC50": "< 1 µM"}
{"compound": "Cc1cccc(C)c1-c1cc2nc(n1)NS(=O)(=O)c1cccc(c1)C(=O)N(Cc1cnc3oc(C4CC4)cc3n1)[C@H](CCC(C)C)CO2", "EC50": "3 to 30 µM"}

Lab request: please report EC50 under test system CFTR (F508del/MF-HBE cells) (Homo sapiens, UniProt P13569, DEL508-508) for Cc1cccc(C)c1-c1cc2nc(n1)NS(=O)(=O)c1cccc(c1)C(=O)N(Cc1cnc3oc(C(C)C)cc3n1)[C@@H](CCC1(C)CC1)CO2 (stereo in doubt)
3 to 30 µM

Lab request: please report EC50 under test system CFTR (F508del/MF-HBE cells) (Homo sapiens, UniProt P13569, DEL508-508) for "Cc1cccc(C)c1-c1cc2nc(n1)NS(=O)(=O)c1cccc(c1)C(=O)N(Cc1cnc3oc(C4CC4)cc3n1)[C@H](COC(C)C)CO2"
1 to 3 µM

Lab request: please report EC50 under test system CFTR (F508del/MF-HBE cells) (Homo sapiens, UniProt P13569, DEL508-508) for "Cc1cccc(C)c1-c1cc2nc(n1)NS(=O)(=O)c1cccc(c1)C(=O)N(Cc1cnc3oc(C4(C)CC4)cc3n1)[C@H](CC1(C)CC1)CO2"
1 to 3 µM

Lab request: please report EC50 under test system CFTR (F508del/MF-HBE cells) (Homo sapiens, UniProt P13569, DEL508-508) for Cc1cccc(CC(C)C)c1-c1nc2nc(c1C)OC[C@@H](CC(C)(C)C)N(Cc1cnc3oc(C(C)C)cc3n1)C(=O)c1cccc(c1)S(=O)(=O)N2 (atropisomer, axis not shown)
1 to 3 µM

Lab request: please report EC50 under test system CFTR (F508del/MF-HBE cells) (Homo sapiens, UniProt P13569, DEL508-508) for "Cc1cccc(C)c1-c1cc2nc(n1)NS(=O)(=O)c1cccc(c1)C(=O)N(Cc1cnc3oc(C(C)(C)C)cc3n1)[C@H](CC13CC(C1)C3)CO2"
< 1 µM

Lab request: please report EC50 under test system CFTR (F508del/MF-HBE cells) (Homo sapiens, UniProt P13569, DEL508-508) for "Cc1cccc(C)c1-c1cc2nc(n1)NS(=O)(=O)c1cccc(c1)C(=O)N(Cc1cnc3cc(C4CC4)n(C)c3n1)[C@H](COC(C)C)CO2"
3 to 30 µM

Lab request: please report EC50 under test system CFTR (F508del/MF-HBE cells) (Homo sapiens, UniProt P13569, DEL508-508) for Cc1cccc(C)c1-c1cc2nc(n1)NS(=O)(=O)c1cccc(c1)C(=O)N(Cc1cnc3oc(C4CC4)cc3n1)C(CCC1(C)CC1)CO2 (single isomer, unassigned)
3 to 30 µM
